tested on: T-47D spheroids with HUVEC/MSC, viability; experiment: Anticancer human tumor T-47D cell line growth inhibition [PI3K]; conditions: second compound 3.16 µM; first compound 1 µM; hits give low values;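 further: spheroids exposed to agents for seven days before reading; percent of DMSO vehicle control luminescence so 100% = untreated growth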
# reported viability, T/C; entries follow
property.measured: viability, T/C (%)

compound: CC(Cn1ccc(-c2ccc(C#N)c(Cl)c2)n1)NC(=O)c1cc(C(C)O)[nH]n1 (stereo not drawn) + Cc1nc(NC(=O)N2CCCC2C(N)=O)sc1-c1ccnc(C(C)(C)C(F)(F)F)c1
property.measured: viability, T/C
observed.result: 65.8
--
compound: CCCS(=O)(=O)Nc1ccc(F)c(C(=O)c2c[nH]c3ncc(-c4ccc(Cl)cc4)cc23)c1F + Cc1nc(NC(=O)N2CCCC2C(N)=O)sc1-c1ccnc(C(C)(C)C(F)(F)F)c1
property.measured: viability, T/C
observed.result: 81.5
--
compound: CNC(=O)c1ccc(N2C(=S)N(c3ccc(C#N)c(C(F)(F)F)c3)C(=O)C2(C)C)cc1F + Cc1nc(NC(=O)N2CCCC2C(N)=O)sc1-c1ccnc(C(C)(C)C(F)(F)F)c1
property.measured: viability, T/C
observed.result: 69.5
